B1: Osa-1-4 twister ribozyme (parent)
chain: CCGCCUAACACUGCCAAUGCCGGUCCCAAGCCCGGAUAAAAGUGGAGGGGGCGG

- Variants of: B1
- Test Details: self-cleavage, relative activity (ratio to wild type); higher = more cleavage; co-transcriptional
The label depends only on self-cleavage: MET if it is at least 0.08, NOT MET if it is smaller.

{"Alteration": "A41U C15G", "Discrete Label": "MET"}
{"Alteration": "A38U A8G", "Discrete Label": "MET"}
{"Alteration": "A16U C33U", "Discrete Label": "MET"}
{"Alteration": "C20A G53U", "Discrete Label": "MET"}
{"Alteration": "G51C U43C", "Discrete Label": "NOT MET"}
{"Alteration": "C32U G50A", "Discrete Label": "MET"}
{"Alteration": "G13U G35U", "Discrete Label": "NOT MET"}
{"Alteration": "G44C U18A", "Discrete Label": "MET"}
{"Alteration": "A17C U37G", "Discrete Label": "MET"}
{"Alteration": "A17U U43A", "Discrete Label": "MET"}
{"Alteration": "G30U U18A", "Discrete Label": "NOT MET"}
{"Alteration": "G44C U37C", "Discrete Label": "MET"}
{"Alteration": "A39C G44C", "Discrete Label": "MET"}
{"Alteration": "A10U A7U", "Discrete Label": "NOT MET"}
{"Alteration": "A28U A38G", "Discrete Label": "MET"}
{"Alteration": "A39U G22U", "Discrete Label": "MET"}
{"Alteration": "A16G C21U", "Discrete Label": "MET"}
{"Alteration": "G50U G54C", "Discrete Label": "MET"}
{"Alteration": "A8C G47U", "Discrete Label": "NOT MET"}
{"Alteration": "A38U U18A", "Discrete Label": "MET"}
{"Alteration": "C15A U43A", "Discrete Label": "MET"}
{"Alteration": "A10G C11G", "Discrete Label": "MET"}
{"Alteration": "C9G U18A", "Discrete Label": "MET"}
{"Alteration": "C14U G45U", "Discrete Label": "NOT MET"}
{"Alteration": "G22A G50U", "Discrete Label": "MET"}
{"Alteration": "C52A U43C", "Discrete Label": "MET"}
{"Alteration": "C14U G49U", "Discrete Label": "NOT MET"}
{"Alteration": "G35U U43G", "Discrete Label": "MET"}
{"Alteration": "C11A G34U", "Discrete Label": "MET"}
{"Alteration": "A16C G53C", "Discrete Label": "MET"}
{"Alteration": "A7U U43G", "Discrete Label": "NOT MET"}
{"Alteration": "C31A G42C", "Discrete Label": "NOT MET"}
{"Alteration": "C11U C33U", "Discrete Label": "MET"}
{"Alteration": "A38C U12A", "Discrete Label": "MET"}
{"Alteration": "A29C C25G", "Discrete Label": "NOT MET"}
{"Alteration": "C52U G35C", "Discrete Label": "MET"}
{"Alteration": "G13U G30A", "Discrete Label": "NOT MET"}
{"Alteration": "A38G C14U", "Discrete Label": "MET"}
{"Alteration": "C14A G53A", "Discrete Label": "NOT MET"}
{"Alteration": "A36U A7U", "Discrete Label": "NOT MET"}
{"Alteration": "G45U G49A", "Discrete Label": "NOT MET"}
{"Alteration": "C15G C32G", "Discrete Label": "MET"}
{"Alteration": "C9A G50C", "Discrete Label": "MET"}
{"Alteration": "G49C G50A", "Discrete Label": "MET"}
{"Alteration": "C33G G54C", "Discrete Label": "NOT MET"}
{"Alteration": "C11A G35C", "Discrete Label": "MET"}
{"Alteration": "C26A C32A", "Discrete Label": "NOT MET"}
{"Alteration": "G49A G50U", "Discrete Label": "MET"}
{"Alteration": "C21A G47C", "Discrete Label": "NOT MET"}
{"Alteration": "C21A C9G", "Discrete Label": "MET"}
{"Alteration": "A41C G47A", "Discrete Label": "MET"}
{"Alteration": "C25U G54C", "Discrete Label": "MET"}
{"Alteration": "G34U", "Discrete Label": "MET"}
{"Alteration": "G30A G35U", "Discrete Label": "NOT MET"}
{"Alteration": "A29U G44C", "Discrete Label": "MET"}
{"Alteration": "G47A U43A", "Discrete Label": "MET"}
{"Alteration": "A39G C27A", "Discrete Label": "MET"}
{"Alteration": "A38C C27U", "Discrete Label": "MET"}
{"Alteration": "G42C G44C", "Discrete Label": "MET"}
{"Alteration": "A41G C52G", "Discrete Label": "MET"}
{"Alteration": "A41U C52A", "Discrete Label": "MET"}
{"Alteration": "G48U G53A", "Discrete Label": "MET"}
{"Alteration": "U24G U43C", "Discrete Label": "NOT MET"}
{"Alteration": "A16U G22C", "Discrete Label": "MET"}
{"Alteration": "A10U C11U", "Discrete Label": "NOT MET"}
{"Alteration": "A36U U37A", "Discrete Label": "MET"}
{"Alteration": "C33G G51U", "Discrete Label": "NOT MET"}
{"Alteration": "A28C G51A", "Discrete Label": "MET"}
{"Alteration": "G42A G54U", "Discrete Label": "MET"}
{"Alteration": "A29G U37A", "Discrete Label": "MET"}
{"Alteration": "A10G C32U", "Discrete Label": "MET"}
{"Alteration": "C14G C25A", "Discrete Label": "NOT MET"}
{"Alteration": "A40C G30A", "Discrete Label": "NOT MET"}
{"Alteration": "G35C G54A", "Discrete Label": "MET"}
{"Alteration": "C26A G13U", "Discrete Label": "NOT MET"}
{"Alteration": "G30U U18C", "Discrete Label": "NOT MET"}
{"Alteration": "G45A U37G", "Discrete Label": "MET"}
{"Alteration": "G48C G53C", "Discrete Label": "NOT MET"}
{"Alteration": "G48A U18G", "Discrete Label": "MET"}
{"Alteration": "A8G C52A", "Discrete Label": "MET"}
{"Alteration": "G45U G49U", "Discrete Label": "NOT MET"}
{"Alteration": "A7G G23U", "Discrete Label": "NOT MET"}
{"Alteration": "C52G U43A", "Discrete Label": "MET"}
{"Alteration": "G13A G53A", "Discrete Label": "NOT MET"}
{"Alteration": "A16C G54C", "Discrete Label": "MET"}
{"Alteration": "C31A G42U", "Discrete Label": "NOT MET"}
{"Alteration": "A16U C15A", "Discrete Label": "MET"}
